The reader will find reported inhibition at 10 µM values listed item by item below.
Tested Target: CK1d (Homo sapiens, UniProt P48730)
Construct: purchased Caliper Life Sciences
Sequence (P48730 whole entry): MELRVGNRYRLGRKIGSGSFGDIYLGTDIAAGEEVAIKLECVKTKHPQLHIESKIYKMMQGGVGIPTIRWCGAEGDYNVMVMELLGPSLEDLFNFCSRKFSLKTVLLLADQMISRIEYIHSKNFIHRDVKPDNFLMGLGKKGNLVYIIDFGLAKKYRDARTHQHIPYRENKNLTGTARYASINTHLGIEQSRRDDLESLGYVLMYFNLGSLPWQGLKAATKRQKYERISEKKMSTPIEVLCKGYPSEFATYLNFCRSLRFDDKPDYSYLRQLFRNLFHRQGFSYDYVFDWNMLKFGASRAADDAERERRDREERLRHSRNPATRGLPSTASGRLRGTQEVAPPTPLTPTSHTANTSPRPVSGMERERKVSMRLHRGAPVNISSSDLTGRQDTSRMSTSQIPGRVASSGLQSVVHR
Assay Summary: Desktop Profiler kinase panel, CK1d
Type: biochemical
Measurement Conditions: 10 micromolar concentration of the compound; read-out: Percent Inhibition CK1d
Experimental: The Aurora assays described here are performed on two Caliper Life Sciences systems: the LC3000 and the Desktop Profiler. These provide data on enzyme activity via measurement of the relative amounts of phosphorylated or unphosphorylated fluorescently labelled substrate peptide at the end of an enzymatic reaction. […] Reading of the plate in the Profiler is identical to the LC3000, and the ratio between substrate and product peaks provides the activity of the enzyme in that well. […]

Here's what some known entries look like.
O=c1[nH]c2nccc(Cl)c2c2ccccc12 | 50 to 70%
CC(=O)Nc1ccc(Oc2ccc3c(=O)[nH]c4ncccc4c3c2)cc1 | 70 to 90%
NC(=O)c1ccc(Oc2ccc3c(=O)[nH]c4ncccc4c3c2)cc1 | 50 to 70%
O=c1[nH]c2nccc(NCc3ccccc3)c2c2ccccc12 | 50 to 70%
O=c1[nH]c2ncccc2c2cc(Nc3cccc(F)c3)ccc12 | 70 to 90%

Alright, here's another compound for you.
Q. For the compound O=C(Nc1ccc(Nc2ccnc3[nH]c(=O)c4ccccc4c23)cc1)c1ccccc1 , give its measured inhibition at 10 µM value.
A. 50 to 70%

Just for reference, patent US8735584B2 is where these values come from.
